study-system: T1, Pa CapW (Pseudomonas aeruginosa PA17, UniProt P0DX74 1-299)
T1 sequence: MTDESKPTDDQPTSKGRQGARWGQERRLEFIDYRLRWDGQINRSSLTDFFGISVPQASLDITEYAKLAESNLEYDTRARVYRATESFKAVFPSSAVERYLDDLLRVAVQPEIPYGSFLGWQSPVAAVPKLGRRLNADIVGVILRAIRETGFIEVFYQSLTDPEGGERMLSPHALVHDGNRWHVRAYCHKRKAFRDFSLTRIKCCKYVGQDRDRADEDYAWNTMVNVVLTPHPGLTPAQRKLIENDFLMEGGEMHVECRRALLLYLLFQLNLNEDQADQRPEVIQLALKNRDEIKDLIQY
assay-info: fluorescence polarization; 5 mM MgCl2; FP: 25 mM Tris pH 8.5, 50 mM NaCl, 5% glycerol, 5 mM MgCl2, 1 mM DTT, 0.01% NP-40 substitute, 50 nM DNA, 10 min, RT; EMSA: 50 mM Tris-HCl pH 8.5, 50 mM NaCl, 5
run-parameters: protein: recombinant; tags: N-terminal His6-TEV, cleaved; chain copies: 2; label: 5'-6-FAM on one strand; blunt
metric: pKd
Kindly note that pKd refers to -log10 of the concentration in mol/L and answer with the value alone.

QUERY: Request the reported pKd associated with Probe #4 (dsDNA) DNA 1: CTAAAAACTATGCGTATAGTAATAATACGC DNA 2: GCGTATTATTACTATACGCATAGTTTTTAG
RESULT: 6.00
